MIC, E. coli Vogel: measured values
Please state the figure in µg/mL; there is no need to write the unit.

Please review the following examples before continuing.
API: value(readout= MIC, system= E. coli Vogel, query= CC(=O)N[C@@H](C(=O)Nc1ccc(-c2ncc(C(=O)N[C@@H](C(=O)NC3C(=O)N4C(C(=O)O)=C(CSc5nnnn5C)CSC34)c3ccccc3)c(O)n2)cc1)C(C)C (stereo partly shown) )
1.6

Try this compound too: `CC(=O)N[C@H](C)C(=O)Nc1ccc(-c2ncc(C(=O)N[C@@H](C(=O)N[C@@H]3C(=O)N4C(C(=O)O)=C(COC(C)=O)CS[C@H]34)c3cccs3)c(O)n2)cc1`
12.5

Try this compound too: CC(=O)NC(C)C(=O)Nc1ccc(-c2ncc(C(=O)N[C@@H](C(=O)NC3C(=O)N4C(C(=O)O)=C(CSc5nnnn5C)CSC34)c3ccccc3)c(O)n2)cc1 (mixture of isomers)
3.1

In the following, a different compound is considered.
API: value(readout= MIC, system= E. coli Vogel, query= CC(=O)NC(CC(C)C)C(=O)Nc1ccc(-c2ncc(C(=O)N[C@@H](C(=O)N[C@@H]3C(=O)N4C(C(=O)O)=C(COC(C)=O)CS[C@H]34)c3ccccc3)c(O)n2)cc1 (mixture of isomers) )
6.3

----------
System: Pseudomonas BRK 12-4-4
Assay: in vitro antibacterial activity, minimal inhibitory concentration
Type: cell-based
Details: BRK1244; Pseudomonas BRK 12-4-4, in vitro
From the text: The compounds of the invention are new chemical compounds that are used as pharmacological agents and especially as broad spectrum antibacterial agents. They are active in vitro against strains of both gram-positive and gram-negative bacteria. Minimal Inhibitory Concentration (μg/ml)
Each record here notes measured MIC.
Please state the figure in µg/mL; there is no need to write the unit.

Please review the following examples before continuing.
Dear colleague, I am looking for the recorded MIC of the following compound: CC(=O)NC(C)C(=O)Nc1ccc(-c2ncc(C(=O)N[C@@H](C(=O)N[C@@H]3C(=O)N4C(C(=O)O)=C(COC(C)=O)CS[C@H]34)c3ccccc3)c(O)n2)cc1 (mixture of isomers)
12.5

Try this compound too: CC(=O)N[C@H](C)C(=O)Nc1ccc(-c2ncc(C(=O)N[C@@H](C(=O)NC3C(=O)N4C(C(=O)O)=C(CSc5nnnn5C)CSC34)c3ccccc3)c(O)n2)cc1 (stereo partly shown)
6.3

Try this compound too: `CC(=O)N[C@@H](C(=O)Nc1ccc(-c2ncc(C(=O)N[C@@H](C(=O)N[C@@H]3C(=O)N4C(C(=O)O)=C(COC(C)=O)CS[C@H]34)c3ccccc3)c(O)n2)cc1)C(C)C`
12.5

New cases:
Dear colleague, I am looking for the recorded MIC of the following compound: `CC(=O)OCC1=C(C(=O)O)N2C(=O)[C@@H](NC(=O)[C@H](NC(=O)c3cnc(-c4ccc(NC(=O)[C@@H](C)N)cc4)nc3O)c3ccccc3)[C@H]2SC1`
6.3

Try this compound too: CC(=O)NC(C)(C)C(=O)Nc1ccc(-c2ncc(C(=O)N[C@@H](C(=O)NC3C(=O)N4C(C(=O)O)=C(CSc5nnnn5C)CSC34)c3ccccc3)c(O)n2)cc1 (stereo partly shown)
6.3

----------
Each record here notes measured MIC.
system: Prot. vulg.
Please state the figure in µg/mL; there is no need to write the unit.

Please review the following examples before continuing.
Dear colleague, I am looking for the recorded MIC of the following molecule: CC(=O)NCC(=O)Nc1ccc(-c2ncc(C(=O)N[C@@H](C(=O)NC3C(=O)N4C(C(=O)O)=C(CSc5nnnn5C)CSC34)c3ccccc3)c(O)n2)cc1 (stereo partly shown)
6.3

Try this molecule too: CC(=O)N[C@@H](C)C(=O)Nc1ccc(-c2ncc(C(=O)N[C@@H](C(=O)NC3C(=O)N4C(C(=O)O)=C(CSc5nnnn5C)CSC34)c3ccccc3)c(O)n2)cc1 (stereo partly shown)
12.5

Try this molecule too: CC(=O)NC(C)C(=O)Nc1ccc(-c2ncc(C(=O)N[C@@H](C(=O)NC3C(=O)N4C(C(=O)O)=C(CSc5nnc(C)s5)CSC34)c3ccccc3)c(O)n2)cc1 (mixture of isomers)
50

New cases:
Dear colleague, I am looking for the recorded MIC of the following molecule: CC(=O)NCC(=O)Nc1ccc(-c2ncc(C(=O)N[C@@H](C(=O)NC3C(=O)N4C(C(=O)O)=C(CSc5nnc(C)s5)CSC34)c3ccccc3)c(O)n2)cc1 (stereo partly shown)
6.3

Try this molecule too: `CC(=O)NCCC(=O)Nc1ccc(-c2ncc(C(=O)N[C@@H](C(=O)N[C@@H]3C(=O)N4C(C(=O)O)=C(COC(C)=O)CS[C@H]34)c3ccccc3)c(O)n2)cc1`
12.5

Try this molecule too: CC(=O)NC(CCC(N)=O)C(=O)Nc1ccc(-c2ncc(C(=O)N[C@@H](C(=O)N[C@@H]3C(=O)N4C(C(=O)O)=C(COC(C)=O)CS[C@H]34)c3ccccc3)c(O)n2)cc1 (mixture of isomers)
25

Try this molecule too: O=C(O)Cn1nnnc1SCC1=C(C(=O)O)N2C(=O)C(NC(=O)[C@H](NC(=O)c3cnc(-c4ccc(NC(=O)CN5CCCC5=O)cc4)nc3O)c3ccccc3)C2SC1 (stereo partly shown)
1.6

Try this molecule too: CC(=O)NC(C)C(=O)Nc1ccc(-c2ncc(C(=O)N[C@@H](C(=O)N[C@@H]3C(=O)N4C(C(=O)O)=C(COC(C)=O)CS[C@H]34)c3ccccc3)c(O)n2)cc1 (mixture of isomers)
50

Try this molecule too: `CC(=O)NCCCC(=O)Nc1ccc(-c2ncc(C(=O)N[C@@H](C(=O)N[C@@H]3C(=O)N4C(C(=O)O)=C(COC(C)=O)CS[C@H]34)c3ccccc3)c(O)n2)cc1`
25

Try this molecule too: CC(=O)N[C@@H](C)C(=O)Nc1ccc(-c2ncc(C(=O)N[C@@H](C(=O)NC3C(=O)N4C(C(=O)O)=C(CSc5nnnn5CC(=O)O)CSC34)c3ccccc3)c(O)n2)cc1 (stereo partly shown)
3.1

These data points were gathered from patent US4311699A.
